The origin of these recorded values is the RNAGym collection of RNA variant scans (doi:10.7554/elife.80360).

B1: Hairpin Ribozyme (parent)
chain: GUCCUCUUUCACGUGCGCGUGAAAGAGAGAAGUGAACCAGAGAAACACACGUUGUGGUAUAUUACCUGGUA

# Variants of: B1
# EXPERIMENTAL DETAILS: self-cleavage, relative activity (ratio to wild type); higher = more cleavage; co-transcriptional
For each record, write down the corresponding self-cleavage.
Please give the numeric answer without any surrounding text.

For the variant GUGCUCAUUCACGUGCGCGUGAAAGAGAGAAGUGAACCAGAGAAACACACGUUGUGGUAUAUUACCUGGUA [C3G U7A] , what self-cleavage is on record?
0.321

For the variant GUCCUCUUUCACGUGCGCGUGAAAGAGAGAAGUGAACCAGAGAUACACACGUUGUGGUAUAAUACCUGGUA [A44U U62A] , what self-cleavage is on record?
0.26

For the variant UUCCUCUUUCACGUGCGCGUGAAAGAGAGAAGUGAACCAGAGAAACACACGUUGUGGUAAAUUACCUGGUA [G1U U60A] , what self-cleavage is on record?
0.195

For the variant GUCCUCUUUCACGUGCGCGUGAAAGAGAGAAGUGAACCAGAGAAACACACGUUGCGGCAUAUUACCUGGUA [U55C U58C] , what self-cleavage is on record?
0.475

For the variant GUCCUCUUUCACGUGCGCGUGAAAGAGAGAAGUGAACCAGAGAAACACACGCUGUUGUAUAUUACCUGGUA [U52C G56U] , what self-cleavage is on record?
0.149

For the variant GUCCUCUUUCACGUGGGCGUGAAAGAGAGAAGUGAACCAGAGAAGCACACGUUGUGGUAUAUUACCUGGUA [C16G A45G] , what self-cleavage is on record?
0.126

For the variant GCCCUCUUUCACGUGCGCGUGAAAGAGAGAAGUGAACCAGAGAAACACACGUUGUGGUAUGUUACCUGGUA [U2C A61G] , what self-cleavage is on record?
0.0293

For the variant AUCCUCUUUCACGUGCGCGUGAAAGAGAGAAGAGAACCAGAGAAACACACGUUGUGGUAUAUUACCUGGUA [G1A U33A] , what self-cleavage is on record?
0.175

For the variant AUCCUCUUUCACGUGCGCGUGAAAGAGAGAAGUGAACCAGAGAAACCCACGUUGUGGUAUAUUACCUGGUA [G1A A47C] , what self-cleavage is on record?
0.124

For the variant GUCCUCUUUCACGUGCGCGUGAAAGAGAGAAGUGCACCAGAGUAACACACGUUGUGGUAUAUUACCUGGUA [A35C A43U] , what self-cleavage is on record?
0.194

For the variant GUCCUCUUUCACGUGCGCGUGAAAGAGAGAAGCGAACCAGAGAAACACACGUUGUGGGAUAUUACCUGGUA [U33C U58G] , what self-cleavage is on record?
0.0694

For the variant GUCCUCUUUCACGUGCGCUUGAAUGAGAGAAGUGAACCAGAGAAACACACGUUGUGGUAUAUUACCUGGUA [G19U A24U] , what self-cleavage is on record?
0.684

For the variant GUCCUCUUUCACGUGUGCGUGAAAGAGAGAAGUGAACCAGAGAAAUACACGUUGUGGUAUAUUACCUGGUA [C16U C46U] , what self-cleavage is on record?
0.143

For the variant GUCCUCUGUCACGUGCGCGUGAAAGAGAGAAGUAAACCAGAGAAACACACGUUGUGGUAUAUUACCUGGUA [U8G G34A] , what self-cleavage is on record?
0.767

For the variant GUCCUCUUUCACGUGCGCGUGAAAGAAAGAAGUAAACCAGAGAAACACACGUUGUGGUAUAUUACCUGGUA [G27A G34A] , what self-cleavage is on record?
0.551

For the variant GUCCUCUUUCACGUGCGCGUGAAAGAGAGAAGUGAACCUGAGAAACACACGUUGUGGUAUAUUACAUGGUA [A39U C66A] , what self-cleavage is on record?
0.121

For the variant GUCCUCUUUCACGGGCGCGUGAAAGAGAGAAGUGAACCAGAAAAACACACGUUGUGGUAUAUUACCUGGUA [U14G G42A] , what self-cleavage is on record?
0.163

For the variant GUCCUCUUUCACGUGCGCGUGAAAAAGAGAGGUGAACCAGAGAAACACACGUUGUGGUAUAUUACCUGGUA [G25A A31G] , what self-cleavage is on record?
0.127

For the variant GUACUCUUUCACGUGCGCGUGAAAGAGAGAAGUGAACCAGAAAAACACACGUUGUGGUAUAUUACCUGGUA [C3A G42A] , what self-cleavage is on record?
0.146

For the variant GUCCUCUUUCACGCGCGCGUGAAAGAGAGAAGUGCACCAGAGAAACACACGUUGUGGUAUAUUACCUGGUA [U14C A35C] , what self-cleavage is on record?
0.687

For the variant GUCCUCUUUCACGUGCGCGUGAAAGAGAGAAGUGAACCAGAGAAACACACGUGGUGGUAUAUUUCCUGGUA [U53G A64U] , what self-cleavage is on record?
0.144

For the variant GUCCUCUUUCACGUGCGCGUGAAAGAGAGAAGUGAACCAGAGAAACACACGUUGUGGUAGCUUACCUGGUA [U60G A61C] , what self-cleavage is on record?
0.315
